# target.entity: T1, RXFP1 (LGR7) receptor, on stably transfected HEK-293T cells (UniProt Q9HBX9 1-757, limits assumed)
# T1 sequence (looked up): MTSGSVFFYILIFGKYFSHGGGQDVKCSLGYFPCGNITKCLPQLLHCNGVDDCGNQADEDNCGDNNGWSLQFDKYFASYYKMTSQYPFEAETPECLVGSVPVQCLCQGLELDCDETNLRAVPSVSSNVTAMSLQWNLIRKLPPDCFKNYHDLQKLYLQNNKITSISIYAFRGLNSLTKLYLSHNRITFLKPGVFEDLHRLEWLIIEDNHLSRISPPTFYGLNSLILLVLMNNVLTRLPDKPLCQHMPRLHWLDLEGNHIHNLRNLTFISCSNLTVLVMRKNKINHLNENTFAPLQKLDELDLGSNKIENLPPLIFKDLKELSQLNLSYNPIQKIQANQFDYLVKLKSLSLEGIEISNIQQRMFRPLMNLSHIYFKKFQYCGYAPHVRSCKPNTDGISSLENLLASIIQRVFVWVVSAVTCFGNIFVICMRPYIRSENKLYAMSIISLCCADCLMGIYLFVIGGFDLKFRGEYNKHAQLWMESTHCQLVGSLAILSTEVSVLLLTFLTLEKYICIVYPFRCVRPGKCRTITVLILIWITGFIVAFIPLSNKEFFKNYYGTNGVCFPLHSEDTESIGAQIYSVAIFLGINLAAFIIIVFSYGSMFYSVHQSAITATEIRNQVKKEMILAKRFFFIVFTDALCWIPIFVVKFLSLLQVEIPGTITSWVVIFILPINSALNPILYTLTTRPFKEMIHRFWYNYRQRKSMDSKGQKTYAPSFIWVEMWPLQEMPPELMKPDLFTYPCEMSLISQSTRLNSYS
# measurement.protocol: cell-based or functional assay
Ends that are not written are not given here.
parameter: cAMP pEC50 (log M)
Express the result in log M but write the number alone.

Recorded cAMP pEC50 of DSWMEEVIKLSGRELVRAQIAISGMSTWSKRSL-NH2 [B1-33 C11.23S] , please. 5.1

Source: patent US20170037106A1
